Ref: patent US20120141464A1

# SUBJECT_OF_TEST: T1, human GM-CSFRα (human, UniProt P15509 23-400)
# T1 sequence: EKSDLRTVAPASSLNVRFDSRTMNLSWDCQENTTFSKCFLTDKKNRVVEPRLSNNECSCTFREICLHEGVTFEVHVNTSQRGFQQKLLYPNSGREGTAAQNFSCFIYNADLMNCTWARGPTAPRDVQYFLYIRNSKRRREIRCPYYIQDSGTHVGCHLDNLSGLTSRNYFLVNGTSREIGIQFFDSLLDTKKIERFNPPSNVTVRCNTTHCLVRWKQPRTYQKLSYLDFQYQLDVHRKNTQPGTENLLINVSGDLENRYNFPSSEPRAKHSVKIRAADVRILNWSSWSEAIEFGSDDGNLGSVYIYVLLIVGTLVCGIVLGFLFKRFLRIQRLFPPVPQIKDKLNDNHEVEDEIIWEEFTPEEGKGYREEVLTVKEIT
# PROTOCOL_NOTES: cell-based or functional assay
METRIC: IC50, TF-1 proliferation assay (7 pM human GM-CSF) (pM)
Provide only the numeric value, understood in pM.

Ask: Please give measured IC50, TF-1 proliferation assay (7 pM human GM-CSF) of the following entry: Antibody 5 (antibody, V domains shown, also called Antibody 05; Ab5) VH: QVQLVQSGAEVKKPGASVKVSCKISGHSLSELSIHWVRQTPTKGFEWMGGFDPEENEIVYAQRFQGRVTMTEDTSIDTAYLTLSSLRSDDTAVYYCAIVGSFSGYPYRPWGQGTMVTVSS VL: QAVLTQPSSVSGAPGQRVTISCTGSGSNIGAPYDVSWYQQLPGTAPKLLIYHNNKRPSGVPDRFSASKSGTSASLAITGLQADDEADYYCQSYDSSLSGSVFGGGTKVTVL
Result: 9.3

Ask: Indicate its recorded IC50, TF-1 proliferation assay (7 pM human GM-CSF); the binder in question is Antibody 4 (antibody, V domains shown, also called Antibody 04; Ab4) VH: QVQLVQSGAEVKKPGASVKVSCKISGHSLSELSIHWVRQTPTKGFEWMGGFDPEENEIVYAQRFQGRVTMTEDTSIDTAYLTLSSLRSDDTAVYYCAIVGSFSPPTYGYWGKGTMVTVSS VL: QAVLTQPSSVSGAPGQRVTISCTGSGSNIGAPYDVSWYQQLPGTAPKLLIYHNNKRPSGVPDRFSASKSGTSASLAITGLQADDEADYYCQSYDSSLSGSVFGGGTKVTVL
Result: 48

Ask: Give the value of IC50, TF-1 proliferation assay (7 pM human GM-CSF) reported for the following: Antibody 20 (antibody, V domains shown, also called Ab20) VH: QVQLVQSGAEVKKPGASVKVSCKISGHSLSELSIHWVRQTPTKGFEWMGGFDPEENEIVYAQRFQGRVTMTEDTSIDTAYLTLSSLRSDDTAVYYCSIVGSFSPLTLGLWGKGTMVTVSS VL: QAVLTQPSSVSGAPGQRVTISCTGSGSNIGAPYDVSWYQQLPGTAPKLLIYHNNKRPSGVPDRFSASKSGTSASLAITGLQADDEADYYCATVDEALSGSVFGGGTKVTVL
Result: 9.8

Ask: Using the record for Antibody 10 (antibody, V domains shown, also called Ab10) VH: QVQLVQSGAEVKKPGASVKVSCKISGHSLSELSIHWVRQTPTKGFEWMGGFDPEENEIVYAQRFQGRVTMTEDTSIDTAYLTLSSLRSDDTAVYYCAIVGSFSGLAYRPWGKGTMVTISS VL: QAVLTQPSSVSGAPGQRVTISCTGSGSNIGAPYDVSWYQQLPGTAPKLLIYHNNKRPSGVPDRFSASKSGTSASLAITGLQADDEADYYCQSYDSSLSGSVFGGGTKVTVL , state its measured IC50, TF-1 proliferation assay (7 pM human GM-CSF).
Result: 55.3

Ask: // fetch IC50, TF-1 proliferation assay (7 pM human GM-CSF) given entry Antibody 2 (antibody, V domains shown, also called Antibody 02; Ab2) VH: QVQLVQSGAEVKKPGASVKVSCKISGHSLSELSIHWVRQTPTKGFEWMGGFDPEENEIVYAQRFQGRVTMTEDTSIDTAYLTLSSLRSDDTAVYYCSIVGSFSGPALRPWGKGTMVTVSS VL: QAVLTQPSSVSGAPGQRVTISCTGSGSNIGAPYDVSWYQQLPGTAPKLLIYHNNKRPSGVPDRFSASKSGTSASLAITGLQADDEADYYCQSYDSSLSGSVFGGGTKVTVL
Result: 15

Ask: Give the value of IC50, TF-1 proliferation assay (7 pM human GM-CSF) reported for the following: Antibody 19 (antibody, V domains shown, also called Ab19) VH: QVQLVQSGAEVKKPGASVKVSCKISGHSLSELSIHWVRQTPTKGFEWMGGFDPEENEIVYAQRFQGRVTMTEDTSIDTAYLTLSSLRSDDTAVYYCAIVGSVSRITYGFWGKGTMVTVSS VL: QAVLTQPSSVSGAPGQRVTISCTGSGSNIGAPYDVSWYQQLPGTAPKLLIYHNNKRPSGVPDRFSASKSGTSASLAITGLQADDEADYYCQSYDSRNPHVIFGGGTKLTVL
Result: 23.8
